Value source: paper PMC5344979

- Experiment description: physchem
- Condition parameters: MilliQ water, pH 6.8
Assay metric: half-life at 1 mM (h)
Unit h implied. Number only.

Q: Please look up its half-life at 1 mM: CC(=O)C=Nc1c(NCC(O)C(O)C(O)CO)[nH]c(=O)[nH]c1=O (stereo not shown)
Ans: 7.68

###

- Experiment description: physchem
- Condition parameters: TBS buffer, pH 8
Assay metric: half-life at 0.065 mM (h)
Unit h implied. Number only.

Molecule: O=CC=Nc1c(NCC(O)C(O)C(O)CO)[nH]c(=O)[nH]c1=O (centres unmarked)
half-life at 0.065 mM / h: 0.3

Proceed to the following item.
Q: Please look up its half-life at 0.065 mM: CC(=O)C=Nc1c(NCC(O)C(O)C(O)CO)[nH]c(=O)[nH]c1=O (centres unmarked)
Ans: 14.4
